Here, each record is paired with measured differential viability (reversal) data.
- experimental.protocol: reversal of MRP1-mediated doxorubicin resistance, pilot screen, H69AR cells, doxorubicin co-treatment (AID 601)
- condition.notes: H69AR cells + 2 uM doxorubicin, CellTiter-Glo, 72 h; at 10 µM; stronger effect = higher value
measurement.type: differential viability (reversal) (%)

1. COCCCn1c(SCC(=O)N2CCc3ccccc32)nnc1-c1ccoc1C :: 2.4
2. Cc1c(NC(=O)C2CCCNC2=O)c(=O)n(-c2ccccc2)n1C (stereo unspecified) :: -0.405
3. Cc1ccccc1-n1nnc2c(=O)oc3ccccc3c21 :: 1.29
4. O=C(O)c1ccc2c3c(ncnc13)-c1ccccc1C2=O :: -19.5
5. COCCCn1nnnc1SCC(=O)Nc1nc(C)c(C)s1 :: 2.5
6. CCCCNC(=O)c1nnn(-c2ccccc2)c1N :: -0.63

====

- experimental.protocol: growth suppression of yeast trafficking mutant, preliminary HTS, modulators of trafficking downstream of Golgi apparatus project, 1536-format plate, OD 615 nm (AID 637)
- condition.notes: yeast transport mutant growth, absorbance 615 nm, 18 h; stronger effect = higher value
measurement.type: inhibition (%)

1. COc1ccc(OCC(=O)Nc2ccc(N3CCOCC3)c(Cl)c2)cc1 :: -2.1
2. O=C(O)C1C2C=CC(C3CC23)C1C(=O)NCCc1ccccc1 (configuration not stated) :: -3.93
3. CCN(c1ccc2c(c1)OCO2)S(=O)(=O)c1cc(Br)cc2c1N(C(=O)C1CC1)CC2 :: 3.17
4. COc1cccc(C(=O)Nc2cccc(C(=O)N3CCOCC3)c2)c1 :: 0.32
5. COc1ccc(OC)c(-c2nc3c(C)n[nH]c(=O)c3[nH]2)c1 :: -0.95
6. CC(Cc1ccc(O)c(O)c1)C(C)Cc1ccc(O)c(O)c1 (configuration not stated) :: -6.33
7. COc1ccc2cc(CN(CCO)C(=O)c3ccc(Br)cc3)c(=O)[nH]c2c1 :: 5.41
8. COc1ccccc1-n1nnnc1SCc1cc2c(cc1Br)OCO2 :: 4.18
9. COc1ccc(N2CCN(C(=O)CSc3ncnc4c3cnn4-c3ccccc3C)CC2)cc1 :: 16
10. CC(=O)C1=C(NC(=O)c2ccccc2F)C[C@@H]2[C@H]1C2(C)C :: -3.55
11. O=C(NC1(C(F)(F)F)C(=O)Nc2c1c(=O)[nH]c(=O)n2Cc1ccco1)C1CCCCC1 (configuration not stated) :: -1.82
12. O=C(Nc1ccccc1Cl)c1c(F)c(F)c(F)c(F)c1F :: 7.09
13. COC(=O)c1ccccc1S(=O)(=O)N(Cc1cc2cc3c(cc2[nH]c1=O)OCO3)C1CCCCC1 :: -2
14. CN(C)CCOC(c1ccccc1)c1ccccc1 :: 2.5
15. O=C(CCNS(=O)(=O)c1ccc(Br)s1)N1CCCCC1 :: -4.19
16. COC(=O)Cc1c(C)nc2nc(-c3ccccc3)[nH]n2c1=O :: -5.56
17. CC(=O)NCC(=O)OC(C)C(=O)Nc1ccc(C(C)=O)cc1 (configuration not stated) :: -5.4
18. CCCCc1oc2ccccc2c1C(=O)c1cc(I)c(OCCN(CC)CC)c(I)c1 :: 100
19. COc1ccc(-c2nc3cc(NC(=O)Cc4ccc(OC)c(OC)c4)ccc3o2)cc1 :: 2.58
20. O=C(CSc1nc2ccc(Cl)cc2[nH]1)NCc1ccco1 :: 13.3
21. CCN(CC)CCN1C(=O)C(=O)/C(=C(/O)c2ccc(OC(C)C)cc2)C1c1ccncc1 (configuration not stated) :: 3.09
22. COC(=O)c1ccc(C2CC(=O)Nc3cc(OC)c(OC)c(OC)c32)cc1 (configuration not stated) :: 0.63

====

- experimental.protocol: reversal of MRP1-mediated doxorubicin resistance, pilot screen, H69AR cells, doxorubicin co-treatment (AID 601)
- condition.notes: H69AR cells + 2 uM doxorubicin, CellTiter-Glo, 72 h; at 10 µM; stronger effect = higher value
Here, each record is paired with measured differential viability (reversal) data.
measurement.type: differential viability (reversal) (%)

1) COc1cccc(C=Nc2ccc3c(c2)OCCO3)c1O :: -12
2) O=S1(=O)C=C(Sc2nc3ccccc3s2)c2ccccc21 :: 0.39
3) CC(NC(=O)NCCCC(=O)O)(C(F)(F)F)C(F)(F)F :: 8.72
4) CCOC(=O)c1c(C)[nH]c(C)c1C(=O)COC(=O)CNC(=O)c1ccc(OCC)cc1 :: 4.05
5) COc1ccc(S(=O)(=O)NCc2ccc(C(=O)O)cc2)cc1 :: -10.6
6) COc1ccc(C2C3=C(CCCC3=O)Nc3nc(SCc4ccccc4)nn32)cc1OC (stereo not drawn) :: -21
7) O=C(CCCn1c(=O)c2sccc2n(Cc2ccc(F)cc2)c1=O)NCc1ccco1 :: -52
8) O=C1C2C3C=CC(C3=C3CCCCC3)C2C(=O)N1c1ccccc1 (stereo not drawn) :: 1.16
9) COCC(=O)Nc1cc(OC)ccc1OC :: 5.8
10) Cc1ccc(NC(=O)c2oc3ccc(S(=O)(=O)N4CCOCC4)cc3c2C)cc1C :: -5.16
11) COCc1nnc(NS(=O)(=O)c2ccc(Br)cc2)s1 :: -4.46
12) COC(=O)CSc1ncccc1-c1nc2ccccc2[nH]1 :: -0.73
13) N[C@@H](C(=O)N[C@@H]1C(=O)N2C(C(=O)O)=C(Cl)CS[C@H]12)c1ccccc1 :: 10.7
14) CN(c1cccc(NC(=O)COc2ccccc2)c1)S(C)(=O)=O :: -3.07
15) Cc1cc(=O)c2n(Cc3ccccc3Cl)nc[n+]2[nH]1 :: 8.77
16) Cc1ccc(-c2nnc(SCC(=O)N3c4ccccc4NC(=O)C3(C)C)n2N)cc1 :: 6.49
17) COc1ccc2c(C)nc(Nc3nc(C)cc(C)n3)nc2c1 :: -6.58
18) CCCN(CCC)S(=O)(=O)c1ccc(C(=O)O)cc1 :: 10.1
19) CC(C)n1c(NCc2c[nH]c3ccccc23)nc2ccccc21 :: -3.61
20) Cc1cc(C)n(C(=O)C23CC4CC(CC(C4)C2)C3)n1 :: 3.23
21) CCOC(=O)c1c(C)n(C)c2ccc(O)c(S(=O)(=O)c3ccccc3)c12 :: -1.07
22) O=c1c2ccccc2[nH]c(=S)n1CCN1CCC(=C(c2ccc(F)cc2)c2ccc(F)cc2)CC1 :: -4.72
23) CC1(C)C(c2cccs2)=[N+]([O-])C2(CCCCC/C2=N\O)N1O (stereo not drawn) :: 18.4

====

- experimental.protocol: HUVEC growth inhibition – cell-based, human, primary screen (AID 575);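 further: 100% = median of untreated cell wells with 0.1% DMSO on each plate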
- condition.notes: HUVEC proliferation, CellTiter-Glo luminescence, 72 h; at 10 µM; stronger effect = lower value
measurement.type: viability (%)

1. C=CCSc1nnc2n(CCc3ccccc3)c(=O)c3c4c(sc3n12)COC(C)(C)C4 :: 72.5
2. Nc1ncnc2c1ncn2[C@@H]1O[C@H](CO)[C@@H](O)[C@H]1O :: 93.9
3. COc1ccc(-c2oc3ncn(CCN4CCOCC4)c(=N)c3c2-c2ccc(OC)cc2)cc1 :: 88.9
4. CCCCn1c(SCc2cccnc2)nc2c1c(=O)n(C)c(=O)n2C :: 121
5. CCC(C(=O)Nc1ccccc1C(=O)N1CCCC1)N1C(=O)c2ccccc2C1=O (stereo not given) :: 78.3
6. CCc1ccc2[nH]c(=O)c(C(c3nnnn3CC3CCCO3)N3CCCc4ccccc43)cc2c1 (stereo not given) :: 88.5
7. O=C(CCCn1c(=O)c2sccc2n(CC(=O)NCc2ccco2)c1=O)NCc1ccco1 :: 90.4
8. [O-][n+]1onc2c1CCc1nnc(-c3ccccc3)cc1-2 :: 113
9. CCOC(=O)c1ccc(Oc2nc(NC)nc(OC)n2)cc1 :: 103
10. COc1ccc(OC)c(NC(=O)CCNS(=O)(=O)c2cccs2)c1 :: 92.4

====

- experimental.protocol: growth suppression of yeast trafficking mutant, preliminary HTS, modulators of trafficking downstream of Golgi apparatus project, 1536-format plate, OD 615 nm (AID 637)
- condition.notes: yeast transport mutant growth, absorbance 615 nm, 18 h; stronger effect = higher value
Activity calls are given as the source filed them. Rule as the data show it: active = inhibition above about 30%; inactive = the rest.
measurement.type: inhibition

1) CCC(c1c(C)n(C)n(-c2ccccc2)c1=O)c1c(C)n(C)n(-c2ccccc2)c1=O :: 4.73% (inactive)
2) Brc1c(NC2=NCCN2)ccc2nccnc12 :: 15.3% (inactive)
3) Cc1ccc2nsnc2c1S(=O)(=O)N1CCN(Cc2ccc3c(c2)OCO3)CC1 :: 2.86% (inactive)
4) CC(C)Oc1cc2oc(=O)c3c(c2cc1Cl)CCC3 :: 0.97% (inactive)
5) CC1(C)CC(=O)C2=C(C1)Nc1ccccc1N=C2 :: 2.73% (inactive)
6) O=S1(=O)C=CC(Nc2cccc(Cl)c2)C1 (stereo unspecified) :: 4.29% (inactive)
7) O=C(Nc1cccnc1)c1cc2c(ccc3ccccc32)o1 :: -3.45% (inactive)
8) Cc1ccc(S(=O)(=O)N2CCCN(S(=O)(=O)C3CCS(=O)(=O)C3)CC2)cc1 (stereo unspecified) :: 1.09% (inactive)
9) O=c1c2cnn(-c3ccccc3)c2ncn1/N=C/c1ccncc1 :: -4.91% (inactive)
10) CC(=O)N1CCc2cc(S(=O)(=O)NCCC(=O)Nc3cc(C)cc(C)c3)ccc21 :: -4% (inactive)
11) O=C(OCCCN1C(=O)c2ccccc2C1=O)c1ccco1 :: -0.16% (inactive)
